System: GM16513 cells
method.description: Catalase import immunofluorescence, high-content screening (% importing cells)
Format: cell-based, human
conditions.used: GM16513 cells, 1.3 µM, 3 days
readout: % Importing cells (%)
Respond with the bare value in %.

O=C(CCCCCCC(=O)Nc1cccnc1)NO [Pyroxamide] : 25

Requested read-out: % Importing cells. Entry: `CCCCNNC(=O)c1ccc(-c2cccc(F)c2F)cc1` 26

====

System: GM16513 cells
method.description: Catalase import immunofluorescence, high-content screening (% importing cells)
Type: cell-based, human
conditions.used: GM16513 cells, 1.3 µM, 3 days
readout: % Importing cells (%)
Give the value in % but do not write % after it.

O=C(c1ccc(Cl)cc1Cl)n1nnc2ccccc21 : 9
Nc1ccccc1NC(=O)c1ccc(Cn2cc(-c3ccc(C(=O)NCc4cccnc4)cc3)nn2)cc1 : 80
Cn1c(/C=C/C(=O)NO)ccc1/C=C/C(=O)c1cccc(F)c1 : 25
O=C(NCC1(c2nc(-c3ccccc3)cs2)CCOCC1)c1cccc(-c2noc(C(F)(F)F)n2)c1 : 11

Now examine the next entry.
Name the reported % Importing cells value associated with the compound `CCCCc1nc2cc(/C=C/C(=O)NO)ccc2n1CCN(CC)CC` 92

Data origin, for the record: patent EP4410284A1
